For each of the compounds below, state its log10(IC50).
Biological target: Amine oxidase [flavin-containing] A (Homo sapiens, UniProt P21397)
Sequence (P21397 whole entry): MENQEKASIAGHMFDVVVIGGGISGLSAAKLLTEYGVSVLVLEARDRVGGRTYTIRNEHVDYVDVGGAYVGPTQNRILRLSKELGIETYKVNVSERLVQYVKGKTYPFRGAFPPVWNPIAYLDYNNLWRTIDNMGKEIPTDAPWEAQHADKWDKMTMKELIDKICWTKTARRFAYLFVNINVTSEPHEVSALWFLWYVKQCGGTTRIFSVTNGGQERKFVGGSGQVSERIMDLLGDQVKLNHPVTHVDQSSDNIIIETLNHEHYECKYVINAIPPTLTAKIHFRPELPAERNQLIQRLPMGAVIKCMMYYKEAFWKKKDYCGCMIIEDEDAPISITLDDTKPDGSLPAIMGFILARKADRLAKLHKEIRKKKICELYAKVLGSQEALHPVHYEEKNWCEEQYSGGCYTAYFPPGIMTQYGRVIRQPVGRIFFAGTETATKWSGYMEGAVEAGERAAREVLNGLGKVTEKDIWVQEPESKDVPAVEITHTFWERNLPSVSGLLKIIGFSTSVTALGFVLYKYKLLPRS
Test: Inhibition of human recombinant MAO-A using p-tyramine as substrate assessed as production of H2O2 incubated for 15 mins prior to substrate addition measured after 20 mins by microplate fluorescence reader analysis
Heads up, the numbers here are log10 of IC50 in µM units.

Exercise: Look up log10(IC50): Cc1ccc(C2=NN(C(=O)CN3CCCCC3)C(c3cc(Cl)ccc3O)C2)cc1 (stereo unspecified)
Solution: 1.16

Exercise: For CC1=NN(C(=O)CN2CCC(=O)CC2)C(c2cc(Br)cc(Br)c2O)C1 (stereo unspecified) then?
Solution: 0.92

Exercise: Try the compound CC1=NN(C(=O)CN2CCCCC2)C(c2cc(Cl)ccc2O)C1 (stereo unspecified)
Solution: 1.02

Exercise: Follow-up item: O=C(CN1CCNCC1)N1N=C(c2ccc(F)cc2)CC1c1cc(Cl)ccc1O (stereo unspecified)
Solution: 0.38

Exercise: Quick one: O=C(CN1CCOCC1)N1N=C(c2ccc(F)cc2)CC1c1cc(Cl)ccc1O (stereo unspecified)
Solution: 1.39

Exercise: Queued: COc1ccc(C2=NN(C(=O)CN3CCOCC3)C(c3cc(Cl)ccc3O)C2)cc1 (stereo unspecified)
Solution: 1.26

Exercise: Query Cc1ccc(C2=NN(C(=O)CN3CCOCC3)C(c3cc(Cl)ccc3O)C2)cc1 (stereo unspecified) next
Solution: 1.43

Exercise: Do the same for O=C(CN1CCCCC1)N1N=C(c2ccccc2)CC1c1ccccc1O (stereo unspecified) please
Solution: 0.98

Exercise: Entry Cc1ccc(C2=NN(C(=O)CN3CCCCC3)C(c3ccccc3O)C2)cc1 (stereo unspecified) please
Solution: 1.05

Exercise: Record: CC1=NN(C(=O)CN2CCOCC2)C(c2cc(Cl)ccc2O)C1 (stereo unspecified)
Solution: 1.12

Exercise: Same question for CC1=NN(C(=O)CN2CCCCC2)C(c2cc(Br)cc(Br)c2O)C1 (stereo unspecified) please.
Solution: 0.89

Exercise: Same lookup for O=C(CN1CCOCC1)N1N=C(c2ccc(Cl)cc2)CC1c1ccccc1O (stereo unspecified) , please.
Solution: 1.33

Exercise: And COc1ccc(C2=NN(C(=O)CN3CCOCC3)C(c3ccccc3O)C2)cc1 (stereo unspecified) ?
Solution: 1.39

Exercise: Record: O=C(CN1CCOCC1)N1N=C(c2ccccc2)CC1c1ccccc1O (stereo unspecified)
Solution: 1.37

Exercise: # iterate: O=C(Cn1ccnc1)N1N=C(c2ccc(F)cc2)CC1c1ccccc1O (stereo unspecified)
Solution: 1.42

Exercise: Moving on to CC1=NN(C(=O)CN2CCN(CCO)CC2)C(c2cc(Br)cc(Br)c2O)C1 (stereo unspecified)
Solution: 1.09

Exercise: For CC1=NN(C(=O)Cn2ccnc2)C(c2cc(Cl)ccc2O)C1 (stereo unspecified) then?
Solution: 1.48

Exercise: # repeat for CC1=NN(C(=O)CN2CCNCC2)C(c2cc(Br)cc(Br)c2O)C1 (stereo unspecified)
Solution: 0.30

Exercise: Likewise for O=C(CN1CCOCC1)N1N=C(c2ccc(Cl)cc2)CC1c1cc(Cl)ccc1O (stereo unspecified) ?
Solution: 1.49

Exercise: Consider next the compound Cc1ccc(C2=NN(C(=O)CN3CCOCC3)C(c3ccccc3O)C2)cc1 (stereo unspecified) in the same way.
Solution: 1.30

Exercise: Would you mind doing O=C(CN1CCOCC1)N1N=C(c2ccc(F)cc2)CC1c1ccccc1O (stereo unspecified) as well?
Solution: 1.23
